# pIC50 per record follows
target_system: EGFR (human)
experimental_context: a431
pIC50: −log10 of the molar value.

COc1cc2ncnc(N3CCN(c4ccccc4C)CC3)c2cc1OC	< 4.00
COc1cc2ncnc(N3CCN(c4cccc(Cl)c4)CC3)c2cc1OC	< 4.00
COc1ccc(CCCCNc2ncnc3cc(OC)c(OC)cc23)cc1OC	< 4.00

Reported pIC50 for "COc1cc2ncnc(N3CCN(c4ccc([N+](=O)[O-])cc4)CC3)c2cc1OC" was < 4.00

Reported pIC50 for "COc1cc2ncnc(Nc3ccccc3[N+](=O)[O-])c2cc1OC" was < 4.00

Reported pIC50 for "COc1cccc(Nc2ncnc3cc(OC)c(OC)cc23)c1" was 4.11

Reported pIC50 for "COc1ccc(Nc2ncnc3cc(OC)c(OC)cc23)cc1OC" was < 4.00

Reported pIC50 for "COc1cc2ncnc(N3CCN(Cc4ccccc4)CC3)c2cc1OC" was 4.46

Reported pIC50 for "COc1ccc(N2CCN(c3ncnc4cc(OC)c(OC)cc34)CC2)cc1" was < 4.00

Reported pIC50 for "COc1cc2ncnc(N3CCN(c4ccccc4OC)CC3)c2cc1OC" was 5.68

###

target_system: EGFR (human) (UniProt P00533)
Sequence (P00533 whole entry, looked up): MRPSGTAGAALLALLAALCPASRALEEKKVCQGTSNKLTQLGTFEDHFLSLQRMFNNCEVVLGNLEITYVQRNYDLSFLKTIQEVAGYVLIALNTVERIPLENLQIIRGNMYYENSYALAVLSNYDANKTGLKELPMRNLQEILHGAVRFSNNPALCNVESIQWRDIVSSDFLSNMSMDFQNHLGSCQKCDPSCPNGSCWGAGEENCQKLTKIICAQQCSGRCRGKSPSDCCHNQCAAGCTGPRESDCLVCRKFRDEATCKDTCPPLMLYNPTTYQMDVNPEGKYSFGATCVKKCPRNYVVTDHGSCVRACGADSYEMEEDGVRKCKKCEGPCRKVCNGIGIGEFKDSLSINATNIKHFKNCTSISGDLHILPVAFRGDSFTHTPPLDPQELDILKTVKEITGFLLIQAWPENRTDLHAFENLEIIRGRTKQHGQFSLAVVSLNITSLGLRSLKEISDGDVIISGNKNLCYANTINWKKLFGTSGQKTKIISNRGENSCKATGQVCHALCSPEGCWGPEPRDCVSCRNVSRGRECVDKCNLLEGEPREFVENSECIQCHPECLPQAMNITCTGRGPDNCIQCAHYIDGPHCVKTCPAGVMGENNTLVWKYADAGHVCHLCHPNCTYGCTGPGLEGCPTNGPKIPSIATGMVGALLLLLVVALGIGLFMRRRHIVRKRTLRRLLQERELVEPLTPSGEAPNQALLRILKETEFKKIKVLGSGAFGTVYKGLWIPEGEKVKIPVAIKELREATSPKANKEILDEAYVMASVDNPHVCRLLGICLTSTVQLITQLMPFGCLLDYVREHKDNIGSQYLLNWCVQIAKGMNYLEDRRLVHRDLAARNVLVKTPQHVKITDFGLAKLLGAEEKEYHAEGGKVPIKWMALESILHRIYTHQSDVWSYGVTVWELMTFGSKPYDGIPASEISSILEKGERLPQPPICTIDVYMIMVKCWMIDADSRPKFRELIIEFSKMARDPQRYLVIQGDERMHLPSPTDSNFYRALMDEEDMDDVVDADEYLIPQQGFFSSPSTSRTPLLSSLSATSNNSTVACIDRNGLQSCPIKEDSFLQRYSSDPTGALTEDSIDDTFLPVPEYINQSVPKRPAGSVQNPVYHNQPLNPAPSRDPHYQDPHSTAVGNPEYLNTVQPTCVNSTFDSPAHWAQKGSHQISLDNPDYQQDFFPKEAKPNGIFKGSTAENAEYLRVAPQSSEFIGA
experimental_context: a431
pIC50: −log10 of the molar value.
# pIC50 per record follows

Worked examples, 2 compounds total:
COc1ccc(CCNc2ncnc3cc(OC)c(OC)cc23)cc1OC	4.52
COc1cc2nc(Nc3cccc(Br)c3)n3nnnc3c2cc1OC	< 4.00

Here's the next entry for you.
Here "COc1cc2ncnc(N3CCSCC3)c2cc1OC" was tested on EGFR (human) (UniProt P00533), and its pIC50 came to < 4.00

src = the Kinase Knowledgebase extract (Sharma et al. 2016)
